meta.source: patent US20090155285A1

Assay target: T1, mature human TGF-β3 (human, UniProt P10600 301-412)
T1 construct: Bought protein (RDI, Cat # RDI-1036/CF); also called TGF-b3
T1 sequence: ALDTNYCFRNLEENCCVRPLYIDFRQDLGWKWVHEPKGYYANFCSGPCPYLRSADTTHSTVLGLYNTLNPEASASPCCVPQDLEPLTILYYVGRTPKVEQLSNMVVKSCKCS
Assay protocol: BIAcore 2000 SPR, antibody captured on Protein A, TGF-β injected
Reported metric: koff (s⁻¹)
Use s⁻¹ as the unit, but write only the number.

Example cases with answers are listed next.
mAb 4.17 (antibody, human IgG4 S228P, kappa, V domains shown, Full-length monoclonal antibody, made by linking the Fab to an IgG4 Fc region) VH: QVQLVQSGAEVKKPGASVKVSCKASGYTFTSYWMNWVRQAPGQGLEWMGQIFPFSGSTNYNEMFEGRVTMTTDTSTSTAYMELRSLRSDDTAVYYCARGIGNYALDAMDYWGQGTLVTVSS VL: DIQMTQSPSSLSASVGDRVTITCRASESVDFWGNSFMHWYQQKPGKAPKLLIYLASNLESGVPSRFSGSGSGTDFTLTISSLQPEDFATYYCQQNAEDPLTFGGGTKVEIKR	2.84e-05
mAb 12.8 (antibody, human IgG4 S228P, kappa, V domains shown, Full-length monoclonal antibody, made by linking the Fab to an IgG4 Fc region) VH: QVQLVQSGAEVKKPGASVKVSCKASGYTFTSYWMNWVRQAPGQGLEWMGQIFPALGSTNYNEMFEGRVTMTTDTSTSTAYMELRSLRSDDTAVYYCARGIGNYALDAMDYWGQGTLVTVSS VL: DIQMTQSPSSLSASVGDRVTITCRASESVDWYGNSFMHWYQQKPGKAPKLLIYYASNLESGVPSRFSGSGSGTDFTLTISSLQPEDFATYYCQQNAEDPLTFGGGTKVEIKR	1.12e-05
mAb 12.4 (antibody, human IgG4 S228P, kappa, V domains shown, Full-length monoclonal antibody, made by linking the Fab to an IgG4 Fc region) VH: QVQLVQSGAEVKKPGASVKVSCKASGYTFTSYWMNWVRQAPGQGLEWMGQIFPALGSTNYGEMFEGRVTMTTDTSTSTAYMELRSLRSDDTAVYYCARGIGNYALDAMDYWGQGTLVTVSS VL: DIQMTQSPSSLSASVGDRVTITCRASESVDWWGNSFMHWYQQKPGKAPKLLIYLASNLESGVPSRFSGSGSGTDFTLTISSLQPEDFATYYCQQNIEDPLTFGGGTKVEIKR	1.53e-05

// next entry
Task item: Tell me the measured koff of mAb 12.7 (antibody, human IgG4 S228P, kappa, V domains shown, Full-length monoclonal antibody, made by linking the Fab to an IgG4 Fc region) VH: QVQLVQSGAEVKKPGASVKVSCKASGYTFTSEWMNWVRQAPGQGLEWMGQIFPALGSTNYNEMYEGRVTMTTDTSTSTAYMELRSLRSDDTAVYYCARGIGNYALDAMDYWGQGTLVTVSS VL: DIQMTQSPSSLSASVGDRVTITCRASESVDFYGNSFMHWYQQKPGKAPKLLIYLASNLESGVPSRFSGSGSGTDFTLTISSLQPEDFATYYCQQNIEDPLTFGGGTKVEIKR , please.
Reply: 1.28e-05
